# TESTED_SYSTEM: S. pneumoniae Topoisomerase IV ATPase (ParE) (Streptococcus pneumoniae serotype 4, UniProt Q59961)
# Sequence (Q59961 whole entry): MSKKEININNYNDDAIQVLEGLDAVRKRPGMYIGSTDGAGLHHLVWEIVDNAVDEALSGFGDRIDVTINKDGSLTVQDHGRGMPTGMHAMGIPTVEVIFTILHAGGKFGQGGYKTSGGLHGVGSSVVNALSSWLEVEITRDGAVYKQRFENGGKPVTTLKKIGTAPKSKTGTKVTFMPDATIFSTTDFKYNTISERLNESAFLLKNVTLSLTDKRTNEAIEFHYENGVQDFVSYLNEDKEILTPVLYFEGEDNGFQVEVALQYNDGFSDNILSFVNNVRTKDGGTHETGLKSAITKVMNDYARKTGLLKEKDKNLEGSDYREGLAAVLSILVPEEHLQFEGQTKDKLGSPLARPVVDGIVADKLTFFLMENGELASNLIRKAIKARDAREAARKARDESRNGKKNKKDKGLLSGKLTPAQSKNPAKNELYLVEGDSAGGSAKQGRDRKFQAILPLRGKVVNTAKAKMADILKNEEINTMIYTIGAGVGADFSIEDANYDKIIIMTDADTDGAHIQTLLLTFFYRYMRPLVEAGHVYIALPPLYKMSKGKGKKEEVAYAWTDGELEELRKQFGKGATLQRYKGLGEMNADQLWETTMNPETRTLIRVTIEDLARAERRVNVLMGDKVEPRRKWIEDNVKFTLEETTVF
# TEST_PROTOCOL: S. pneumoniae Topoisomerase IV ATPase inhibition
# Type: biochemical
# STATED_CONDITIONS: values marked * are an average of two or more data points, read-out: % Inh (13 μM) of S. pneumoniae Topoisomerase IV ATPase
Lab note: compare inhibition at 13 µM against 80%. Equal or greater, write criterion met. Smaller, write criterion not met.

Hello, I need to know if Fc1ccc(Nc2ncc(-c3cncnc3)c(NCCc3c[nH]cn3)n2)cc1Cl [Example 471] has measured inhibition at 13 µM not below 80%. Thanks!
criterion met

Likewise for COc1cc(Nc2ncc(-c3cnc(OC)nc3)c(NCCc3ccncc3)n2)cc(C(F)(F)F)c1 [Example 356] ?
criterion met

Likewise for COc1cc(Nc2ncc(-c3cnc(SC)c(C(=O)O)c3)c(-n3ccc(C(F)(F)F)n3)n2)cc(OC)c1 [Example 851] ?
criterion met

Likewise for Fc1ccc(Nc2ncc(-c3cncnc3)c(N3CCC3)n2)cc1Cl [Example 67] ?
criterion not met

Likewise for CC(=O)N1CCN(c2nc(Nc3ccc(F)c(Cl)c3)ncc2-c2cccc(/C=C/C(=O)O)c2)CC1 [Example 288] ?
criterion met

Likewise for O=S1(=O)CCN(CCNc2nc(Nc3ccc(F)c(Cl)c3)ncc2-c2cncnc2)CC1 [Example 47] ?
criterion not met

Likewise for COc1cc(Nc2ncc(-c3cccc(/C=C/C(=O)O)c3)c(N3CCOCC3)n2)cc(OC)c1 [Example 351] ?
criterion met

====

Provide the reported inhibition at 13 µM of each item.
# TESTED_SYSTEM: S. pneumoniae Topoisomerase IV ATPase (ParE) (Streptococcus pneumoniae serotype 4)
# TEST_PROTOCOL: S. pneumoniae Topoisomerase IV ATPase inhibition
# Type: biochemical
# STATED_CONDITIONS: values marked * are an average of two or more data points, read-out: % Inh (13 μM) of S. pneumoniae Topoisomerase IV ATPase
Reply with just the number (in %).

Given CN(C)CCCNc1nc(Nc2ccc(F)c(Cl)c2)ncc1-c1cccc(/C=C/C(=O)O)c1 [Example 29] , state its recorded inhibition at 13 µM.
99.7

Likewise for Cc1cc(C(F)(F)F)nn1-c1nc(Nc2ccc(F)c(Cl)c2)ncc1-c1cncc(C(=O)NCCO)c1 [Example 927] ?
98

Likewise for COCCCNc1nc(Nc2ccc(F)c(Cl)c2)ncc1-c1ccc2[nH]c(C(=O)O)cc2c1 [Example 1062] ?
91

Likewise for COc1cc(C)cc(Nc2ncc(-c3cc(C(=O)O)c(=O)n(C)c3)c(-n3ccc(C(F)(F)F)n3)n2)c1 [Example 859] ?
100

Likewise for COc1cc(Nc2ncc(-c3ccc4c(c3)C(=O)NS4(=O)=O)c(-n3nc(C(F)(F)F)cc3C)n2)cc(OC)c1 [Example 830] ?
100

Likewise for O=C(O)[C@@H]1C[C@H]1c1cccc(-c2cnc(Nc3ccc(F)c(Cl)c3)nc2-n2ccc(C(F)(F)F)n2)c1 (racemic) [Example 574] ?
96

Likewise for CC(C)N1CCN(CCn2cc(-c3cnc(Nc4ccc(F)c(Cl)c4)nc3-n3ccc(C(F)(F)F)n3)cc(C(=O)O)c2=O)CC1 [Example 1089] ?
100

====

Provide the reported inhibition at 13 µM of each item.
# TESTED_SYSTEM: S. pneumoniae Topoisomerase IV ATPase (ParE) (Streptococcus pneumoniae serotype 4, UniProt Q59961)
# TEST_PROTOCOL: S. pneumoniae Topoisomerase IV ATPase inhibition
# Assay type: biochemical
# STATED_CONDITIONS: values marked * are an average of two or more data points, read-out: % Inh (13 μM) of S. pneumoniae Topoisomerase IV ATPase
# Source text: S. pneumoniae Topoisomerase IV ATPase Inhibition Activity: Compounds may be tested for inhibition of S. pneumoniae ParE ATPase activity using an ammonium molybdate/malachite green-based phosphate detection assay (Lanzetta, P. A., L. J. Alvarez, P. S. Reinach, and O. A. Candia, 1979, 100: 95-97). […] An IC50 measurement of compound potency for each compound can be determined from reactions performed in the presence of 10 different compound concentrations. […]
Reply with just the number (in %).

Given COc1cc(Nc2ncc(-c3cnc(OCCCS(C)(=O)=O)c(C(=O)NS(C)(=O)=O)c3)c(-n3nc(C(F)(F)F)cc3C)n2)cc(OC)c1 , state its recorded inhibition at 13 µM.
100

Likewise for COc1cc(C#N)cc(Nc2ncc(-c3cncc(C(=O)O)c3)c(-n3nc(C(F)(F)F)cc3C)n2)c1 ?
100

Likewise for O=C(O)c1cncc(-c2cnc(Nc3ccc(F)c(Cl)c3)nc2N[C@@H]2CCOC2)c1 ?
80.4

Likewise for CONC(=O)c1cncc(-c2cnc(Nc3ccc(F)c(Cl)c3)nc2-n2nc(-c3nccs3)cc2C)c1 ?
100
